MTT Assay MT1/293 % Viability ± SEM for assorted compounds
- Tested on: MT1/293
- experiment: MTT cytotoxicity assay, MT1/293 cells
- Assay type: cell-based
- setup_conditions: percentage of untreated control cells
Numbers only here, please. The scale is %.

The cases that follow already have their MTT Assay MT1/293 % Viability ± SEM on record.
[
  {
    "compound": "COc1cc(COc2c(OC)ccc3c(=O)n(C)ccc23)cc(OC)c1",
    "number": 50.2
  },
  {
    "compound": "Cn1ccc2cc(OC(=O)c3ccccc3)c(OC(=O)c3ccccc3)cc2c1=O",
    "number": 108.5
  },
  {
    "compound": "COc1cc(COc2cc3ccn(C)c(=O)c3cc2OC)cc(OC)c1",
    "number": 71.6
  },
  {
    "compound": "COc1cccc(COc2c(OC)ccc3c(=O)n(C)ccc23)c1",
    "number": 57.1
  }
]

# next compound below
Prompt: Look up MTT Assay MT1/293 % Viability ± SEM: `COc1ccc2c(=O)n(C)ccc2c1OCc1ccc(C)cc1`
Completion: 54.9

Each recorded value in this set is attributed to patent US8389544B2.
